# Measured Target: T1, LIN7A, O14910
# T1 sequence (O14910 103-200, limits assumed, looked up): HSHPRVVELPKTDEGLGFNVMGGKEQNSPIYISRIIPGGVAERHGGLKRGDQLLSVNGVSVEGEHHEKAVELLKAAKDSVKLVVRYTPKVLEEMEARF
# Test: holdup assay
# Set-up: key: below the threshold = too weak to quantify, mostly under pKd 3.1 to 4
# Setup Conditions: plain residues with an end cap or a label only (N-terminal biotin on a linker: ttds)

{"Binder": "DPRNTQTSQI [ABRAXAS2, Q15018]", "pKd": "below the threshold"}
{"Binder": "PKRPFVESNV [TANC2, Q9HCD6]", "pKd": "below the threshold"}
{"Binder": "LDSQIQETSI [MAP4, P27816]", "pKd": "below the threshold"}
{"Binder": "GGPKEEESPV [SLC16A1, P53985]", "pKd": "below the threshold"}
{"Binder": "LCALPKVTTV [AGMAT, Q9BSE5]", "pKd": 3.64}
{"Binder": "VNKVWDQSSV [CIT, O14578]", "pKd": "below the threshold"}
